Reported EC90 values are given for each entry in this list.
system: C8166; assay: Concentration required to reduce the amount of p24 by 90% in C8166 cells infected with an efavirenz-resistant strain EFVR; type: functional; settings: Homo sapiens
quantity: EC90 (nM)

compound=Cc1cc(C)cc(S(=O)(=O)c2c(C(=O)NCCO)[nH]c3ccc(Cl)cc23)c1 unit_abbreviation=nM measurement_qualifier== test_result=100
compound="O=C1Nc2ccc(Cl)cc2[C@@](C#CC2CC2)(C(F)(F)F)O1 [EFAVIRENZ]" unit_abbreviation=nM measurement_qualifier== test_result=1800
compound=Cc1cc(C)cc(S(=O)(=O)c2c(C(=O)NNCCO)[nH]c3ccc(Cl)cc23)c1 unit_abbreviation=nM measurement_qualifier== test_result=200
compound="Cc1ccnc2c1NC(=O)c1cccnc1N2C1CC1 [NEVIRAPINE]" unit_abbreviation=nM measurement_qualifier=> test_result=30000
compound="NC(=O)c1[nH]c2ccc(Cl)cc2c1S(=O)(=O)c1ccccc1 [L-737126]" unit_abbreviation=nM measurement_qualifier== test_result=900
